Tested on: MOLM-13 cells
procedureText: MOLM-13 Cell Proliferation Assay (indicator of DHODH inhibition)
Format: cell-based
conditions: Homo sapiens, 72 Hours of culture, CellTiter-Glo, no uridine
reportedMetric: pIC50
When answering, recall that pIC50 equals minus log10 of the concentration in mol/L, and write that number alone.

Cc1ccnc(N2CCc3c([nH]c4ccc(Cl)cc34)C2c2cnc(N3CCOCC3)nc2)n1 (centres unmarked)    8.13

Form field pIC50, entry Fc1ccc(C2c3[nH]c4cc(F)c(Cl)cc4c3CCN2c2nccc(C(F)(F)F)n2)cc1 (centres unmarked) : 7.75

Form field pIC50, entry N#Cc1ccnc(N2CCc3c([nH]c4cc(F)c(Cl)cc34)C2c2cccc(F)c2F)n1 (centres unmarked) : 8.06

Form field pIC50, entry Cc1cc(O)c2[nH]c3c(c2c1)CCN(c1nccc(C(F)(F)F)n1)C3c1ccc(C)c(F)c1F (centres unmarked) : 9.22

Form field pIC50, entry O=C(O)CCNc1ncc([C@H]2c3[nH]c4ccc(Cl)cc4c3CCN2c2nc(C(F)(F)F)nc(C(F)(F)F)n2)cn1 : 8.40

Form field pIC50, entry O=[N+]([O-])c1ccc2[nH]c3c(c2c1)CCN(c1nccc(C(F)(F)F)n1)C3c1cnc(N2CCOCC2)nc1 (centres unmarked) : 8.44

Form field pIC50, entry Cc1ccc(C2c3[nH]c4cc(F)c(Cl)cc4c3CCN2c2ncc(C)cn2)cc1 (centres unmarked) : 7.66

Form field pIC50, entry Cc1ccc(C2c3[nH]c4cc(F)c(Cl)cc4c3CCN2c2nccc(C(F)(F)F)n2)cc1 (centres unmarked) : 8.46

====

Tested on: MOLM-13 cells
procedureText: MOLM-13 Cell Proliferation Assay (indicator of DHODH inhibition)
Assay type: cell-based
conditions: Homo sapiens, 72 Hours of culture, CellTiter-Glo, no uridine
// reported IC50 for each item listed
I only need the number, in nM, no unit after it.

Form field IC50, entry Cc1cc(C(F)(F)F)nc(N2CCc3c([nH]c4ccc(Cl)cc34)C2c2ccc(C)c(F)c2F)n1 (stereo not shown) : 1

Form field IC50, entry FC(F)(F)c1cc(C(F)(F)F)nc(N2CCc3c([nH]c4ccc(-n5nccn5)cc34)[C@@H]2c2ccc(N3CCOCC3)nc2)n1 : 0.6

Form field IC50, entry Cc1nc(C)nc(N2CCc3c([nH]c4ccc([N+](=O)[O-])cc34)C2c2cnc(N3CCOCC3)nc2)n1 (stereo not shown) : 18.1

Form field IC50, entry N#Cc1ccc(C2c3[nH]c4cc(F)c(Cl)cc4c3CCN2c2ncc(F)cn2)cc1 (stereo not shown) : 49.2

====

System: MOLM-13 cells
procedureText: MOLM-13 Uridine Rescue Assay
Type: cell-based
conditions: Homo sapiens; MOLM-13 cell proliferation with 100 μM Uridine added, 72 Hours of culture
We label by threshold. Values of IC50 strictly beneath 8 µM are t. Values of 8 µM and up are f.

Cc1nc(C)nc(N2CCc3c([nH]c4ccc(Cl)cc34)C2c2ccc(N3CCOCC3)c(F)c2F)n1 (stereo not drawn) [Compound 284]    f

q: In plain terms, does Cc1cc(C(F)(F)F)nc(N2CCc3c([nH]c4ccc(Cl)cc34)C2c2ccc(C)c(F)c2F)n1 (stereo not drawn) [Compound 213] come in under 8 µM for IC50?
a: t

q: In plain terms, does Cc1ccnc(N2CCc3c([nH]c4ccc(Cl)cc34)C2c2ccc(N3CCOCC3)nc2)n1 (stereo not drawn) [Compound 352] come in under 8 µM for IC50?
a: t

====

Test system: MOLM-13 cells
procedureText: MOLM-13 Cell Proliferation Assay (indicator of DHODH inhibition)
Type: cell-based
conditions: Homo sapiens, 72 Hours of culture, CellTiter-Glo, no uridine
// reported IC50 for each item listed
I only need the number, in nM, no unit after it.

Cc1ccc([C@H]2c3[nH]c4ccc(Cl)cc4c3CCN2c2nc(C(F)F)nc(C(F)(F)F)n2)c(F)c1F [Compound 510]    0.1

Result for Cc1ccc(C2c3[nH]c4ccc(Cl)c(F)c4c3CCN2c2ncc(F)c(C#N)n2)cc1 (stereo not shown) [Compound 217] , tested on MOLM-13 cells, IC50: 2.2

Result for Cc1ccnc(N2CCc3c([nH]c4cc(F)c(Cl)cc34)C2c2ccc(C)c(F)c2F)n1 (stereo not shown) [Compound 139] , tested on MOLM-13 cells, IC50: 3.6

Result for Cc1ccc([C@H]2c3[nH]c4ccc(Cl)cc4c3CCN2c2nc(C(F)(F)F)nc(C(F)(F)F)n2)cc1 [Compound 386] , tested on MOLM-13 cells, IC50: 0.3

====

// reported pIC50 for each item listed
System: MOLM-13 cells
procedureText: MOLM-13 Cell Proliferation Assay (indicator of DHODH inhibition)
Assay type: cell-based
conditions: Homo sapiens, 72 Hours of culture, CellTiter-Glo, no uridine
When answering, recall that pIC50 equals minus log10 of the concentration in mol/L, and write that number alone.

Consider the reported pIC50 for these compounds:
Cc1ccn(-c2ccc3[nH]c4c(c3c2)CCN(c2nc(C(F)(F)F)nc(C(F)(F)F)n2)[C@H]4c2ccc(C)c(F)c2F)n1    7.96
Cc1ccc(C2c3[nH]c4cc(F)c(Cl)cc4c3CCN2c2ncc(F)c(C#N)n2)c(F)c1F (stereo not shown)    8.62
Cc1ccc([C@H]2c3[nH]c4ccc(Cl)cc4c3CCN2c2nc(C#N)cc(C(F)(F)F)n2)c(F)c1F    8.57

Form field pIC50, entry FC(F)(F)c1ccnc(N2CCc3c([nH]c4ccc(Cl)cc34)C2c2ccc(N3CCOCC3)nc2)n1 (stereo not shown) : 8.60

====

// reported IC50 for each item listed
System: MOLM-13 cells
procedureText: MOLM-13 Uridine Rescue Assay
Format: cell-based
conditions: Homo sapiens; MOLM-13 cell proliferation with 100 μM Uridine added, 72 Hours of culture
I only need the number, in µM, no unit after it.

Consider the reported IC50 for these molecules:
Cc1ccc(C2c3[nH]c4ccc([N+](=O)[O-])cc4c3CCN2c2nccc(C(F)(F)F)n2)c(F)c1F (stereo not shown) [Compound 305]    11.6
Nc1cc(Cl)cc2c3c([nH]c12)C(c1cnc(N2CCOCC2)nc1)N(c1nccc(C(F)(F)F)n1)CC3 (stereo not shown) [Compound 310]    14.5
Cc1ncnc(N2CCc3c([nH]c4ccc(Cl)cc34)C2c2cnc(N3CCOCC3)nc2)n1 (stereo not shown) [Compound 294]    12.4
Cc1ccc(C2c3[nH]c4ccc(Cl)cc4c3CCN2c2nc(C)nc(C)n2)cc1 (stereo not shown) [Compound 355]    5.66
Cc1ccc(C2c3[nH]c4cc(N)c(Cl)cc4c3CCN2c2nccc(C(F)(F)F)n2)c(F)c1F (stereo not shown) [Compound 282]    11.5

Form field IC50, entry Cc1ccc(C2c3[nH]c4ccc(N(C)C)cc4c3CCN2c2nccc(C(F)(F)F)n2)c(F)c1F (stereo not shown) [Compound 330] : 11.5

Form field IC50, entry CN1CCN(c2ncc(C3c4[nH]c5ccc(Cl)cc5c4CCN3c3nccc(C(F)(F)F)n3)cn2)CC1 (stereo not shown) [Compound 369] : 5.02

====

Tested on: MOLM-13 cells
procedureText: MOLM-13 Cell Proliferation Assay (indicator of DHODH inhibition)
Assay type: cell-based
conditions: Homo sapiens, 72 Hours of culture, CellTiter-Glo, no uridine
Protocol: The following assay was conducted to measure proliferation of MOLM-13 cells in the presence of each compound studied. […] On day 1, Log-phase growing Molm-13 Cells were counted and diluted to 10^5 cells/mL in RPMI 1640 medium+10% FBS • 3. […] The plates were then read by ViewLux (Speed-fast, Gain-High, Bining-1X, 5 seconds).
// reported IC50 for each item listed
I only need the number, in nM, no unit after it.

Consider the reported IC50 for these compounds:
Cc1ccc(C2c3[nH]c4ccc(Cl)c(F)c4c3CCN2c2ncc(Cl)cn2)c(F)c1F (stereo not shown) [Compound 195]    1
C=Cc1ccc2[nH]c3c(c2c1)CCN(c1nccc(C(F)(F)F)n1)C3c1ccc(C)cc1 (stereo not shown) [Compound 291]    4.4
Cc1ccc(C2c3[nH]c4ccc(Cl)cc4c3CCN2c2nccc(C#N)n2)c(F)c1F (stereo not shown) [Compound 363]    3.2
Cc1ccc(C2c3[nH]c4ccc([N+](=O)[O-])cc4c3CCN2c2nccc(C(F)(F)F)n2)c(F)c1F (stereo not shown) [Compound 305]    1

Next:
Form field IC50, entry Cc1ccc(C2c3[nH]c4cc(F)c(Cl)cc4c3CCN2c2nccc(Cl)n2)cc1 (stereo not shown) [Compound 43] : 6

====

Test system: MOLM-13 cells
procedureText: MOLM-13 Cell Proliferation Assay (indicator of DHODH inhibition)
Type: cell-based
conditions: Homo sapiens, 72 Hours of culture, CellTiter-Glo, no uridine
We label by threshold. Values of IC50 strictly beneath 8 nM are yes. Values of 8 nM and up are no.

Fc1cnc(N2CCc3c([nH]c4ccc(Cl)c(F)c34)C2c2cnc(N3CCOCC3)nc2)nc1 (stereo not shown)    yes

q: In plain terms, does Cc1nc(C)nc(N2CCc3c([nH]c4c(O)cc(Cl)cc34)C2c2ccc(C)c(F)c2F)n1 (stereo not shown) come in under 8 nM for IC50?
a: yes

q: In plain terms, does Oc1ccc(C2c3[nH]c4cc(F)c(Cl)cc4c3CCN2c2ncc(F)cn2)cn1 (stereo not shown) come in under 8 nM for IC50?
a: no

q: In plain terms, does Cc1ccc(C2c3[nH]c4ccc(Cl)cc4c3CCN2c2nccc(-c3ccccc3)n2)c(F)c1F (stereo not shown) come in under 8 nM for IC50?
a: yes

q: In plain terms, does C[C@@H]1CN(c2ncc([C@H]3c4[nH]c5ccc(Cl)cc5c4CCN3c3nc(C(F)(F)F)cc(C(F)(F)F)n3)cn2)CCN1 come in under 8 nM for IC50?
a: yes

q: In plain terms, does Fc1cc2[nH]c3c(c2cc1Cl)CCN(c1ncc(Cl)cn1)C3c1ccc(Cl)cc1 (stereo not shown) come in under 8 nM for IC50?
a: no
